Molecular target: recombinant human Factor IX (rhFIX, Genetics Institute) (human) (UniProt P00740)
Sequence (P00740 47-461 limits assumed): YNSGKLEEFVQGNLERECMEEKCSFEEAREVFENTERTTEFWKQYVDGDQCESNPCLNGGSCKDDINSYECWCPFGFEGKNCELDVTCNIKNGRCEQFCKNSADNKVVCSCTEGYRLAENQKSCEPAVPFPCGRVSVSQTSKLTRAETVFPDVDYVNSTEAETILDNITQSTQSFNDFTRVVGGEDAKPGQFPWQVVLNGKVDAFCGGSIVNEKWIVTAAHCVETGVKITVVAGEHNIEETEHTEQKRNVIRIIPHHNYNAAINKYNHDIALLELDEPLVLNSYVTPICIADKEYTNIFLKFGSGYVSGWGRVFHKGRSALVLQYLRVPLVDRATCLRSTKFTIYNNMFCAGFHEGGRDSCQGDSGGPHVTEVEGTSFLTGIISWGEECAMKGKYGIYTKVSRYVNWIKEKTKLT
Experiment: BIAcore, calculated
measured.property: Kd (nM)
Hi! Could you send only the number? It should be in nM, unit omitted.

These solved cases illustrate the format of a correct answer.
{"binder": "humanized anti-Factor IX monoclonal antibody SB 249416 (antibody, V domains shown) VH: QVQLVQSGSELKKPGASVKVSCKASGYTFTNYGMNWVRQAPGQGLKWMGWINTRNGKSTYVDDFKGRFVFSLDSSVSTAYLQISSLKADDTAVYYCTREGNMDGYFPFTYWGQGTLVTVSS VL: EIVLTQSPATLSLSPGERATLSCRASSSVNYMHWYQQRPGQAPKPWIYATSNLASGVPARFSGSGSGTDYTLTISSLEPEDFAVYYCQQWSINPRTFGGGTKVEIKR", "Kd / nM": 0.8}
{"binder": "humanized anti-Factor IX monoclonal antibody SB 257731 (antibody, V domains shown) VH: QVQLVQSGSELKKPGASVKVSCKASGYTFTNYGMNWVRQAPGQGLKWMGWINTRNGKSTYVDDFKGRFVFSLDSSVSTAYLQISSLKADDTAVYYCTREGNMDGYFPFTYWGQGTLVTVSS VL: QIVLTQSPATLSLSPGERATLSCRASSSVNYMHWYQQRPGQAPKPWIYATSNLASGVPARFSGSGSGTDYTLTISSLEPEDFAVYYCQQWSINPRTFGGGTKVEIK", "Kd / nM": 1.1}

Pending binder:
Please report the recorded Kd for humanized anti-Factor IX monoclonal antibody SB 257732 (antibody, V domains shown) VH: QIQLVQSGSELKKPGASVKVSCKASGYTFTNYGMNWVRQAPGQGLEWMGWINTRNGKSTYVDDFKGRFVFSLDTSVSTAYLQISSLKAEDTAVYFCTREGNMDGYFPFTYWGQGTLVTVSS VL: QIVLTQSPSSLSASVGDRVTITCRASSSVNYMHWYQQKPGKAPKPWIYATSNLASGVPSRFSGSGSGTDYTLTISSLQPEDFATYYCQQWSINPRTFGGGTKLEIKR .
1.5

Every entry's value here was drawn from patent US20020146411A1.
